Exercise: state measured CB1 Receptor Functional Activity (change in functional activity, CRE β-gal) for each of the molecules provided.
- assayed target: CB1 receptor (human) (Homo sapiens, UniProt P21554)
- Sequence (P21554 whole entry): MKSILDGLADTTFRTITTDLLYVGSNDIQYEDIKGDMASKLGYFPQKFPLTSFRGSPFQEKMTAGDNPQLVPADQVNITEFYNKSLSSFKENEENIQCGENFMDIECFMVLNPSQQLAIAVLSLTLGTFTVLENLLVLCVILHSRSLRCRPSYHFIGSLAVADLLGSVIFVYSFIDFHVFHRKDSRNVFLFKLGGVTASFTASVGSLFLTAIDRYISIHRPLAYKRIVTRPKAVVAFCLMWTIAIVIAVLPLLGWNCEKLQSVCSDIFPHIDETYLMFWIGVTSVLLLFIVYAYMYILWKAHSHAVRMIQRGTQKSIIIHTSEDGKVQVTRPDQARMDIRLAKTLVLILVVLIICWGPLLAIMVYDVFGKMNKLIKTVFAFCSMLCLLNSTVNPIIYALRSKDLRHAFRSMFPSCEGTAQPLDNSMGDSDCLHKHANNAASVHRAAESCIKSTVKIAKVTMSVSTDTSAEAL
- method: cell-based
- test context: one compound concentration; β-galactosidase activity relative to vehicle treated cells
Give the value in % but do not write % after it.

Query block: What CB1 Receptor Functional Activity (change in functional activity, CRE β-gal) value was documented for this molecule, CCOC(=O)N1CCc2c(c(C(=O)NC3C4(C)CCC(C4)C3(C)C)nn2-c2ccccc2)C1 (stereo not shown) [Cpd 113] ?
Result block: 57

Query block: Endpoint output: CB1 Receptor Functional Activity (change in functional activity, CRE β-gal) of CCNC(=O)N1CCc2c(c(C(=O)NC3C4(C)CCC(C4)C3(C)C)nn2C2CCCCC2)C1 (stereo not shown) [Cpd 129] . Value?
Result block: 36

Query block: Form field: reported CB1 Receptor Functional Activity (change in functional activity, CRE β-gal) of CCOC(=O)N1CCc2c(c(C(=O)NC3C4(C)CCC(C4)C3(C)C)nn2Cc2ccccc2)C1 (stereo not shown) [Cpd 107]
Result block: −6

Query block: Form field: reported CB1 Receptor Functional Activity (change in functional activity, CRE β-gal) of CCNC(=O)N1CCc2c(c(C(=O)NC3C4(C)CCC(C4)C3(C)C)nn2-c2ccccc2)C1 (stereo not shown) [Cpd 114]
Result block: 51
